meta.source: the supplement of paper PMC12592484

test system: CAF#3 (primary prostate cancer-associated fibroblasts of myCAF-like type); assay: drug sensitivity score (DSS2, normalised partial AUC of dose-response, 72 h CellTiter-Glo viability) (DSS (dimensionless)); higher = more sensitive (stronger growth inhibition / cytotoxicity); extreme values may be limits of the assay
Catalogue of compounds with associated drug sensitivity score
Number, no unit, nothing else.

| compound | drug sensitivity score |
| --- | --- |
| CCN(c1cc(-c2ccc(CN3CCOCC3)cc2)cc(C(=O)NCc2c(C)cc(C)[nH]c2=O)c1C)C1CCOCC1 [Tazemetostat] (tested concentration range 1-10000 nM) | 1.2 |
| CCN(CC)CCNC(=O)c1c(C)[nH]c(/C=C2\C(=O)Nc3ccc(-c4csc(-c5ccccc5)n4)cc32)c1C [Amcasertib] (tested concentration range 1-10000 nM) | 0 |
| CCNC(=O)C[C@@H]1N=C(c2ccc(Cl)cc2)c2cc(OC)ccc2-n2c(C)nnc21 [Molibresib] (tested concentration range 1-10000 nM) | 6.6 |
| O[C@H]1CC[C@H](Nc2ncc3nc(Nc4c(F)cc(F)cc4F)n([C@H]4CCOC4)c3n2)CC1 [Tanzisertib] (tested concentration range 1-10000 nM) | 3.3 |

Here is another compound to look at.
Item Cc1[nH]nc(C(F)(F)F)c1Cc1sc2c(c1C(=O)N1C[C@](C)(O)CO1)c(=O)n(C)c(=O)n2C(C)C [AZD3965] (tested concentration range 0.1-1000 nM) : provide drug sensitivity score
0

---

system: CAF#3; experiment: drug sensitivity score (DSS2, normalised partial AUC of dose-response, 72 h CellTiter-Glo viability) (DSS (dimensionless)); higher = more sensitive (stronger growth inhibition / cytotoxicity); extreme values may be limits of the assay
Documented drug sensitivity score across a set of compounds

Here is how some compounds turned out for drug sensitivity score.
| compound | result |
| --- | --- |
| CCCCc1nc2cc(/C=C/C(=O)NO)ccc2n1CCN(CC)CC [Pracinostat] (tested concentration range 1-10000 nM) | 9 |
| CN1CC[C@@H](NC(=O)Nc2ccc(C#N)cc2)C[C@@H]1c1nc2ccccc2[nH]1 [Glasdegib] (tested concentration range 0.1-1000 nM) | 0.1 |
| CCN(CC)Cc1ccc2cc(COC(=O)Nc3ccc(C(=O)NO)cc3)ccc2c1 [Givinostat] (tested concentration range 0.1-1000 nM) | 1.8 |

Give measured drug sensitivity score for COC(=O)N[C@@H](C)CNc1nccc(-c2cn(C(C)C)nc2-c2cc(Cl)cc(NS(C)(=O)=O)c2F)n1 [Encorafenib] (tested concentration range 0.1-1000 nM) (CAF#3).
2

With CAF#3 as the test system, provide measured drug sensitivity score for this compound: C[C@]12C=CC(=O)C=C1CC[C@@H]1[C@@H]2[C@@H](O)C[C@@]2(C)[C@H]1CC[C@]2(O)C(=O)CO [Prednisolone] (tested concentration range 1-10000 nM)
0

Give the observed drug sensitivity score of CCCCNc1ncc(C(=O)NCc2ccc(-n3ccnc3)cc2)c(NC2CCC(O)CC2)n1 (stereo unspecified) [UNC2881] (tested concentration range 0.2-2500 nM) for CAF#3.
2.6

Quote CAF#3 drug sensitivity score for entry O=C(CCCCCCC(=O)Nc1ccc([C@H]2O[C@@H](CSc3nc(-c4ccccc4)c(-c4ccccc4)o3)C[C@@H](c3ccc(CO)cc3)O2)cc1)NO [Tubacin] (tested concentration range 1-10000 nM) .
0

# return drug sensitivity score of C[C@@H](Nc1cc(F)cc(F)c1)c1cc(C(=O)N(C)C)cc2c(=O)cc(N3CCOCC3)oc12 [AZD-8186] (tested concentration range 0.1-1000 nM) (system: CAF#3)
4.2

# assay system CAF#3: give drug sensitivity score of O=C1CN2Cc3c(ccc(Cl)c3Cl)N=C2N1 [Anagrelide] (tested concentration range 1-10000 nM)
7.2

Look up and report drug sensitivity score, with CAF#3 as system, for CS(=O)(=O)N1CCN(Cc2cc3nc(-c4cccc5[nH]ncc45)nc(N4CCOCC4)c3s2)CC1 [Pictilisib] (tested concentration range 1-10000 nM)
10.9

Please report the measured drug sensitivity score for CCCCC(=O)OCC(=O)[C@]1(O)Cc2c(O)c3c(c(O)c2[C@@H](O[C@H]2C[C@H](NC(=O)C(F)(F)F)[C@H](O)[C@H](C)O2)C1)C(=O)c1c(OC)cccc1C3=O [Valrubicin] (tested concentration range 0.5-5000 nM) tested on CAF#3.
8.7
